Items are presented alongside their recorded melting point.

Examples from the recorded data:
1. CC12CCC(=O)C=C1CCCC2n1cc(-c2ccccc2)nn1 (stereo not given)	158 to 159 °C
2. NC1=NS(=O)(=O)c2sc(Cl)cc2N1	> 361 °C
3. CC(C)(C)c1ccc(OCC(=O)NCc2ccc(NS(C)(=O)=O)c(O)c2)cc1	112 °C
4. COc1ccc(CN(C)CCCOc2ccc(NC(=O)c3cccc4c(=O)c5cccc(F)c5[nH]c34)cc2)cc1OC	150 °C
5. CC(C)N(CCCCO)c1cnc(-c2ccccc2)c(-c2ccccc2)n1	102 to 103 °C

Data point: Cn1nc(-c2ccccc2)c(Oc2ccc([N+](=O)[O-])cc2)c1-c1ccccc1 ; melting point = 85 to 110 °C

Data point: O=C1NCC2=C1c1ccc(Cl)cc1C(c1ccccc1Cl)=NC2 ; melting point = 195 to 197 °C

Data point: CC(C)=CCC/C(C)=C/Cn1c(CO)nc2ccccc21 ; melting point = 120 to 123 °C

---

experimentalEndpoint: melting point

1. Nc1ccc(-c2cc(=O)c(C(=O)O)cn2-c2cccnc2)cc1	207 to 208 °C
2. COc1nc(C(F)(F)C(F)(F)F)c(F)c(=O)n1-c1cc(OC(C)C)c(Cl)cc1F	69 to 71 °C
3. CCOC(=O)C1=C(C)NC(N)=C(C(=O)OCC)C1c1cccc(Cl)c1 (stereo not given)	157 to 159 °C
4. C=CCNC(=O)C(C#N)C(=O)C1CC1 (stereo not given)	72 to 73.5 °C
5. C#Cc1c(C#N)nn(-c2c(Cl)cc(C(F)(F)F)cc2Cl)c1N(C)C	145 to 147 °C

Now for another entry.
Data point: COC(=O)c1ccc(Oc2ccc(N3CCN(c4ccncc4)CC3)cc2)nc1 ; melting point = 143 to 144 °C

---

Items are presented alongside their recorded melting point.

Examples from the recorded data:
1. N#Cc1cnc2cc3c(cc2c1Nc1ccc(Cl)cc1Cl)OCCN3	254 to 255 °C
2. O=c1c2cc(-c3nnn[nH]3)ccc2oc2ncccc12	> 300 °C
3. Nc1c(OCC(O)CN2CCC(COc3ccccc3)CC2)cccc1[N+](=O)[O-] (stereo not given)	117 to 118 °C
4. O=C(O)C1=Cc2c(F)cccc21	81 to 83 °C
5. Cn1cnc(COc2nc3c(cc2-c2ccsc2)nnn3-c2ccccc2F)n1	174 to 176 °C
6. O=C(O)c1ccc2c(c1)Cc1ccccc1O2	298 to 299 °C
7. C#CCOc1ccc(C=O)cc1OC	95 °C
8. CC(C)(C)OC(=O)NC1CCN(CCn2c(=O)ccc3ccc(C#N)cc32)CC1	202 °C

Data point: O=C(N1CCOCC1)N1CCN(Cc2ccc3c(c2)-c2[nH]nc(-c4ccsc4)c2C3)CC1 ; melting point = 188 to 190 °C

Data point: COc1ccc(NC(=O)C2(C(=O)O)CC2)cc1 ; melting point = 133 to 136 °C

Data point: CCOC(=O)c1c(Cl)c2cscc2[nH]c1=O ; melting point = 157 °C

---

Items are presented alongside their recorded melting point.

Examples from the recorded data:
1) Cn1c(=O)c2c(Br)cccc2n2cnc(-c3nc(C4CC4)no3)c12	246 to 247 °C
2) Cn1nc(-c2ccncc2)n(C)c1=S	150 to 152 °C
3) CCCc1cnc(-c2ccc(F)cc2)nc1	52.7 °C
4) O=C(O)CNC(=O)c1cc(-c2ccc3c(c2)OCO3)c2c3c(ccc2c1)OCO3	255 to 257 °C

Data point: COc1cc(-c2oc3ccccc3c(=O)c2C(=O)NCCCCN2CCN(c3ccccn3)CC2)cc(OC)c1OC ; melting point = 168 to 173 °C

Data point: COc1c(Br)cc([N+](=O)[O-])cc1-c1c2ccccc2c(Br)c2sc(C)c(C)c12 ; melting point = 204 to 205 °C

Data point: COC(=O)c1ccc(-c2ccc(OC)c(OC3CCCC3)c2)cc1 ; melting point = 128 to 131 °C

---

experimentalEndpoint: melting point

Examples from the recorded data:
1. N#CC1(N2CCN(c3ccccc3)CC2)CCCCC1	133 to 135 °C
2. CC1(C)Oc2ccc(CC3SC(=O)NC3=O)cc2CC1c1ccccc1 (stereo unspecified)	53 to 68 °C
3. CCOc1nn(-c2ccc(C(F)(F)F)cn2)cc1CCCOc1cc(CCC(=O)O)n(-c2ccccc2)n1	121 to 122 °C
4. OC1(NC2=NCCS2)C(=Cc2ccccc2)CSCC1=Cc1ccccc1 (stereo unspecified)	171 to 172 °C
5. O=C(O)Cc1c(Cl)nc(-c2ccccc2)n1Cc1ccccc1	161 to 163 °C

Now for another entry.
Data point: CC(C)N1NC(c2ccc(F)cc2)=c2cc(Cl)ccc2=CS1(=O)=O ; melting point = 147 to 151 °C

---

Items are presented alongside their recorded melting point.

1. CN1C(=O)CC(Sc2cc(C(C)(C)C)c(O)c(C(C)(C)C)c2)C1=O (stereo unspecified)	132 °C

Data point: C=C1CC2(C)C(=O)CC(O)C2C2CCC3=CC(=O)CCC3C12 (stereo unspecified) ; melting point = 237 °C

Data point: O=C(O)CCc1cc2cc(OC(F)(F)F)ccc2n1S(=O)(=O)c1ccccc1 ; melting point = 138 to 146 °C

Data point: O=C1Cc2cc(Cl)c(N3CCCCC3)cc2O1 ; melting point = 129 to 131 °C

Data point: Cn1cc(C2=CC(=O)NC2=O)c2ccccc21 ; melting point = 229 to 231 °C

Data point: CCCCCN1Cc2cccc(S(N)(=O)=O)c2S1(=O)=O ; melting point = 156 to 160 °C

Data point: CC1(COC(=O)c2ccccc2)COC(CBr)(c2ccc(Cl)cc2Cl)OC1 (stereo unspecified) ; melting point = 139 to 142 °C

---

Items are presented alongside their recorded melting point.

Examples from the recorded data:
1) CCC(=O)NCCC1CNc2ccc3c(c21)CCO3 (configuration not stated)	96 to 98 °C
2) O=C(O)C1(C(=O)Nc2ccc(F)cc2F)CC1	160 to 163 °C

Data point: CC(C)(C)OC(=O)Nc1ccc(C#Cc2ccc(Cl)cc2)cc1[N+](=O)[O-] ; melting point = 213 to 218 °C

Data point: COCn1ccnc1C(O)(c1ccccc1)c1ccccc1C(C)(C)C (configuration not stated) ; melting point = 149 to 150 °C

Data point: CCCCCN(CCC12CC3CC(CC(C3)C1)C2)C(=O)NCCc1ccncc1 ; melting point = 107 to 118 °C

---

Items are presented alongside their recorded melting point.

Examples from the recorded data:
1. COc1ccc2c(c1OC)CC1C(=O)N(Cc3ccccc3)C(=O)C21 (stereo not drawn)	130 to 132 °C
2. CN(c1ccccc1)P(N)(N)=O	97 to 99 °C

Data point: O=C(NCCNCC1COc2ccccc2O1)C12CC3CC(CC(C3)C1)C2 (stereo not drawn) ; melting point = 147 to 149 °C

---

experimentalEndpoint: melting point

Examples from the recorded data:
1) CCN(CC)S(=O)(=O)c1ccc(Oc2ccc(S(=O)(=O)C(F)(F)F)cc2)cc1	83 to 84 °C
2) O=C(Nc1ccc(C(=O)O)cc1)NN1CC=CCC1	> 240 °C
3) Nc1c(C(=O)O)cccc1-c1ccc(CCc2ccc(Cl)c(C(F)(F)F)c2)cc1	150 to 152 °C
4) CCNc1cc(NS(=O)(=O)c2ccc(N)cc2)nc(NCC)n1	245 to 250 °C
5) COc1nc(-n2cc(C(=O)O)c(=O)c3cc(F)c(N4CC(N)C4)c(Cl)c32)c(F)cc1F	171 to 175 °C

Now for another entry.
Data point: CCOC(=O)/C=C/C=C/c1ccc(OCC(F)(F)C(F)F)cc1 ; melting point = 65 to 66 °C

---

Items are presented alongside their recorded melting point.

1. O=C(C(c1ccccc1)n1cnc2[nH]ncc2c1=S)N1CCC(C2C=C(O)C=CN2)CC1 (stereo not drawn)	138 to 142 °C

Data point: COc1cc(OC)c(-c2cc3ccccc3s2)cc1C=CC(=O)c1cc(OC)c(OC)c(OC)c1 ; melting point = 194 to 196 °C

Data point: CCOC(=O)c1cn(NC=O)c2cc3c(cc2c1=O)OCO3 ; melting point = 255 to 257 °C

Data point: CN1CCN(Cc2cccc(OCc3ccc4ccccc4n3)c2)CC1 ; melting point = 47 to 49 °C

---

Items are presented alongside their recorded melting point.

Examples from the recorded data:
1) Cc1ccc(-n2c(-c3ccc(C#C[Si](C)(C)C)cc3)ccc2-c2ccc(C#C[Si](C)(C)C)cc2)cc1	223 to 224 °C
2) Cc1ccc(-c2ccc3c(c2)C=C(C(=O)OC(C)(C)C)CO3)cc1	80 to 82 °C
3) CCCCc1oc2ccccc2c1Cc1ccc(OS(=O)(=O)c2ccc(C(=O)O)c(O)c2)cc1	135 to 138 °C
4) O=C(Nc1ccc2cc(CN3CCCC3)cnc2c1F)c1ccc(-c2ccc(Cl)cc2)cc1	206 to 208 °C
5) COc1ccccc1C(=O)NS(=O)(=O)c1ccc(NC(=O)c2ccc(Cl)cc2Cl)cc1	140 to 146 °C
6) Cn1c(=O)c2[nH]c(C=Cc3cccc(N)c3)nc2n(C)c1=O	> 300 °C

Data point: CCOc1ccc(OCc2ccccc2)c(C(=O)OC)n1 ; melting point = 45 to 46 °C

Data point: CC(C)(C)[C@@H](NC(=O)c1cc(Cl)cc(Cl)c1)NC1C(=O)C(=O)C1Nc1cccnc1Cl (stereo partly drawn) ; melting point = 233 to 234 °C

Data point: CCCC(=NOCC)C1=C(O)CC(c2c(OC)nc(C)c3c2CCCC3=O)CC1=O (stereo not drawn) ; melting point = 162 °C

Data point: CNS(=O)(=O)c1ccccc1Nc1nc(Nc2ccc3c(c2)CCCC(=O)N3CC(=O)OC)ncc1Cl ; melting point = 237 to 239 °C

Data point: Cc1c(C(=O)O)nc2ccc3c(c2c1-c1ccc2c(c1)OCO2)OCO3 ; melting point = 219 to 222 °C

Data point: COc1cc(Nc2nc(O)c3c(n2)C(c2ccccc2)CN(C)C3)ccc1-n1cnc(C)c1 (stereo not drawn) ; melting point = 152 to 155 °C

Data point: Nc1cc(C(=O)O)cc(OCc2ccc(Cl)cc2)c1Cc1ccccc1 ; melting point = 199 to 200 °C

Values from a melting point compilation (Tetko et al.; mined from patent text by program, amines drawn as free bases though some values may be those of a salt)
